system: P388 leukemia ip, CD2F1 mice, survival T/C; test: NCI In Vivo Anticancer Drug Screen. Data for tumor model P388 Leukemia (intraperitoneal) in CD2F1 (CDF1) mice; settings: endpoint: median survival time; dose: 50.0 mg/kg/injection; schedule: Q04DX003 (ip); vehicle: saline with Tween-80; higher = longer survival
Inconclusive results and toxic doses are left out.
Listed below: T/C values for each entry.

O=C1CC(=O)N2CCSC2=N1; 102 % of control
CN1C(=O)/C(=C2\Sc3ccccc3NC2=O)SC1=S; 92 % of control

--- query ---
stdin: Give its T/C value. Item: CC(C)C1OC(/C=C/c2ccccc2)OCC1(C)C (stereo not drawn)
stdout: 102 % of control

* * *

Parameter: T/C. Scope: all listed entries.
system: P388 leukemia ip, CD2F1 mice, survival T/C; experiment: NCI In Vivo Anticancer Drug Screen. Data for tumor model P388 Leukemia (intraperitoneal) in CD2F1 (CDF1) mice; conditions: endpoint: median survival time; dose: 50.0 mg/kg/injection; schedule: Q01DX009 (ip); vehicle: saline; higher = longer survival
Toxic doses and inconclusive results are not listed.

Solved entries:
CC1(C)CC(NC(=O)CCl)CC(C)(C)N1O; 93 % of control
CCNC(=O)Nc1ccc(Cl)cn1; 102 % of control
CC(=O)n1c(N)nc2ccccc21; 104 % of control
O=C1Cc2ccccc2N1; 116 % of control
Cc1cnc(N)c(S(=O)(=O)O)c1; 88 % of control

stdin: Quick check: T/C on P388 leukemia ip, CD2F1 mice, survival T/C, item "O=C(CCN1CCCC1)c1ccccc1" ?
stdout: 100 % of control

* * *

T/C by entry:
test system: P388 leukemia ip, CD2F1 mice, survival T/C; assay: NCI In Vivo Anticancer Drug Screen. Data for tumor model P388 Leukemia (intraperitoneal) in CD2F1 (CDF1) mice; settings: endpoint: median survival time; dose: 25.0 mg/kg/injection; schedule: Q04DX003 (ip); vehicle: saline; higher = longer survival
Toxic doses and inconclusive results are not listed.

Cc1ccc(S(=O)(=O)N=S(C)(=O)CCCl)cc1 (stereo not drawn); 100 % of control
NC(=O)CCn1cnc2c(N)ncnc21; 100 % of control

Next:
stdin: # lookup: T/C of "CCOCCNc1ncnc2c1cnn2C"
stdout: 88 % of control

* * *

The following compounds are listed with their measured T/C values.
tested on: P388 leukemia ip, CD2F1 mice, survival T/C; experiment: NCI In Vivo Anticancer Drug Screen. Data for tumor model P388 Leukemia (intraperitoneal) in CD2F1 (CDF1) mice; conditions: endpoint: median survival time; dose: 200.0 mg/kg/injection; schedule: Q01DX001 (ip); vehicle: Klucel (hydroxypropylcellulose) (HPC); higher = longer survival
Inconclusive results and toxic doses are left out.

stdin: So what's the measured T/C for this one? "CC(=O)OCc1c(-c2ccccc2)nc2sccn12"
stdout: 100 % of control

stdin: GET /values?readout=T/C&item= "Cc1nn2cc(-c3ccc4ccccc4c3)nc2[nH]c1=O"
stdout: 99 % of control

stdin: Quick one: T/C for CC(Br)C(C)(C)OO (centres undefined) ?
stdout: 95 % of control

stdin: // returns reported T/C for input "CC1(C)C=CC(=O)C=C1C#N"
stdout: 104 % of control

stdin: Which T/C is listed for "c1ccc(C(c2ccccc2)(c2cccs2)N2CCCCC2)cc1" ?
stdout: 94 % of control

stdin: Would you kindly share the measured T/C for "CN1C(=O)/C(=c2\sc3nc4ccccc4n3c2=O)c2cc(Br)ccc21" ?
stdout: 99 % of control

stdin: Requested read-out: T/C. Entry: N#CC(C#N)C(c1ccccc1)c1cccc2ccccc12 (centres undefined)
stdout: 109 % of control

stdin: Query: T/C; subject: "O=CNNc1cccc(Cl)n1"
stdout: 97 % of control

stdin: Given O=C1OC(C(O)CO)C(=N\Nc2ccc(Cl)cc2)/C1=N/Nc1ccccc1 (centres undefined) , state its recorded T/C.
stdout: 103 % of control
